Reference source for all entries: paper PMC10786891

System: T1, EsCas13d, nuclease-dead (Eubacterium siraeum, UniProt B0MS50, R295A;H300A;R849A;H854A)
T1 sequence: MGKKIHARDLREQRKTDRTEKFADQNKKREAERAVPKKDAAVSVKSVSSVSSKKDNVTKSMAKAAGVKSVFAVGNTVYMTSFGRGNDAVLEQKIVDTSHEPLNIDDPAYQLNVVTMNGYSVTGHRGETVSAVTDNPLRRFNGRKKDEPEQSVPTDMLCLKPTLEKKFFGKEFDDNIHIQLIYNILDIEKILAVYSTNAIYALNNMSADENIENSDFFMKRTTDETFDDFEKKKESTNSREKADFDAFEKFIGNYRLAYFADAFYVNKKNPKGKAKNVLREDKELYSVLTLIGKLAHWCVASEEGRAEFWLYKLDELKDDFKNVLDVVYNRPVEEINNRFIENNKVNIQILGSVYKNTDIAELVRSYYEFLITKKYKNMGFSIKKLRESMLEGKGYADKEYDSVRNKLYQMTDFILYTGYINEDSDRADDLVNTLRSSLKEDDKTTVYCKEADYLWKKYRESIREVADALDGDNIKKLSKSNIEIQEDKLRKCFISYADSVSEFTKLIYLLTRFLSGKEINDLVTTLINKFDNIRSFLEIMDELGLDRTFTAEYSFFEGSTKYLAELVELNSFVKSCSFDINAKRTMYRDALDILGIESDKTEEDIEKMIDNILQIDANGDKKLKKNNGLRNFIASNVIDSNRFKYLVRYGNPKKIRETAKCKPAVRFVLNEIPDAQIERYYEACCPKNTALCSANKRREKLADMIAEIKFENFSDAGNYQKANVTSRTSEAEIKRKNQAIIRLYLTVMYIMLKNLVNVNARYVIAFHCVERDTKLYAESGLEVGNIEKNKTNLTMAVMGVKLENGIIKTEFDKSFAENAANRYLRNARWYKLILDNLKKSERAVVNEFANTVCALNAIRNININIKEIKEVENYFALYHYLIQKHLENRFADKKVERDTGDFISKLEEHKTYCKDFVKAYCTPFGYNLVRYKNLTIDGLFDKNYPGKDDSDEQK
Procedure text: crRNA (strand 1, pre-loaded); Mg2+; 40 mM Tris-HCl pH 7.5, 150 mM NaCl, 6 mM MgCl2, 1 mM DTT, 0.1% Tween-20, 0.2 mg/ml BSA; 25 C; 10 min per concentration, then washed
Details: tags: His6-TwinStrep-SUMO cleaved; N-terminal SNAP kept (SNAP-Surface 488); label: 3' end held by stalled T7 RNA polymerase
Give measured pKd for each item. Keep answers brief.
Numbers only, as −log10 of the molar value.

Binder	pKd
target 1 C6A,G13U (mixed) RNA 1: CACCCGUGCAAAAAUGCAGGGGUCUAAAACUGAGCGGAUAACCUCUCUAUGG RNA 2: GGGAAUGGAUCCACAUCUACGAAUUCGUACCAUAGAGAUGUUAUCAGCUCACCGAGAUCGGAAGAGCACACGU	7.47
target 1 MT 5'PFS AGG 3'PFS UUG (mixed) RNA 1: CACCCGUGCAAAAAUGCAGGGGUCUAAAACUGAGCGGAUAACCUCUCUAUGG RNA 2: GGGAAUGGAUCCACAUCUACGAAUUCAGGCCAUAGAGAGGUUAUCCGCUCAUUGAGAUCGGAAGAGCACACGU	7.39
target 1 U8C,A18C (mixed) RNA 1: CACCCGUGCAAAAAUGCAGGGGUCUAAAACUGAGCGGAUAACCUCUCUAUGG RNA 2: GGGAAUGGAUCCACAUCUACGAAUUCGUACCAUCGAGAGGUUACCCGCUCACCGAGAUCGGAAGAGCACACGU	7.05

Kindly review the next binder as well.
Data request, read-out pKd, for target 3 G4A,U7C (mixed) RNA 1: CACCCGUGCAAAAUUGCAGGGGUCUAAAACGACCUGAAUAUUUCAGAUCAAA RNA 2: GGGAAUGGAUCCACAUCUACGAAUUCGUUUUUGAUCUGAAAUAUCCAAGUCUGCAGAUCGGAAGAGCACACGU
7.15
